# target.entity: T1, wtTIA-RRM123 (Homo sapiens, UniProt P31483-2 1-274)
# T1 sequence: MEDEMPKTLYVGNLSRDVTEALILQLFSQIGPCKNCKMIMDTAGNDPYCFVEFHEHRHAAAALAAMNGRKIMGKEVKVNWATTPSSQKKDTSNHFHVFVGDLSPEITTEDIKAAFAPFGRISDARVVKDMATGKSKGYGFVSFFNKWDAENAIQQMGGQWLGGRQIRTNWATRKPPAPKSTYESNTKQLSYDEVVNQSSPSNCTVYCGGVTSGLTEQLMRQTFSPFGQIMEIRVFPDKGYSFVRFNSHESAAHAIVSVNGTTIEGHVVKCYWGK
# procedure.details: ITC
property.name: pKd
Quick note: pKd means taking -log10 of the concentration in moles per liter.

Ask: Reported pKd, binder UUUUUUUUUUUUUUUUUUUU (ssRNA) [U20 RNA] : ____
Reply: 6.21
